- assay.target: XIAP-BIR2 (Homo sapiens (Human), UniProt P98170)
- Sequence (P98170 124-240): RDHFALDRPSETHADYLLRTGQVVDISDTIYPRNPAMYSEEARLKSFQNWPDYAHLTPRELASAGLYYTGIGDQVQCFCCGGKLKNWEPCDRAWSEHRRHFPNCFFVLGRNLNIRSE
- procedure.details: BIR binding assay (FRET competition), XIAP BIR2
- condition.info: FRET competition binding; read-out: XIAP BIR2 (pIC50) (converted)
value.kind: IC50

Q. For the compound C[C@@H]1CN(CC(=O)N2CC(C)(C)c3[nH]c(=O)c(Cc4ccc(F)cc4)cc32)[C@@H](CN2CCN(C(=O)CCCCCCCCC(=O)N3CCN(C[C@H]4CN[C@H](C)CN4CC(=O)N4CC(C)(C)c5[nH]c(=O)c(Cc6ccc(F)cc6)cc54)[C@H](C)C3)C[C@H]2C)CN1 [Example 3] , give its reported IC50.
A. 10 to 51.3 µM

Q. Query IC50 for C[C@@H]1CN(CC(=O)N2CC(C)(C)c3[nH]c(=O)c(Cc4ccc(F)cc4)cc32)[C@@H](CN2CCO[C@H](C(=O)N3CCCN(C(=O)[C@@H]4CN(C[C@H]5CN[C@H](C)CN5CC(=O)N5CC(C)(C)c6[nH]c(=O)c(Cc7ccc(F)cc7)cc65)CCO4)CC3)C2)CN1 [Example 131]
A. 10 to 51.3 µM

Q. Please list IC50 recorded for the compound C[C@@H]1CN(CC(=O)N2CC(C)(C)c3[nH]c(=O)c(Cc4ccc(F)cc4)cc32)[C@@H](CN2CCN(C(=O)Cc3ccccc3CC(=O)N3CCN(C[C@H]4CN[C@H](C)CN4CC(=O)N4CC(C)(C)c5[nH]c(=O)c(Cc6ccc(F)cc6)cc54)[C@H](C)C3)C[C@H]2C)CN1 [Example 7]
A. 1 to 3.16 µM

Q. Report IC50, nothing else, for this compound: C[C@@H]1CN(CC(=O)N2CC(C)(C)c3[nH]c(=O)c(Cc4ccc(F)cc4)cc32)[C@@H](CN2CCN(Cc3c(F)c(F)c(CN4CCN(C[C@H]5CN[C@H](C)CN5CC(=O)N5CC(C)(C)c6[nH]c(=O)c(Cc7ccc(F)cc7)cc65)[C@H](C)C4)c(F)c3F)C[C@H]2C)CN1 [Example 28]
A. 10 to 51.3 µM

Q. Give IC50 for C[C@@H]1CN(CC(=O)N2CC(C)(C)c3[nH]c(=O)c(Cc4ccc(F)cc4)cc32)[C@@H](CN2CCC(CN(C)C(=O)Cc3ccc(C(=O)N(C)CC4CCN(C[C@H]5CN[C@H](C)CN5CC(=O)N5CC(C)(C)c6[nH]c(=O)c(Cc7ccc(F)cc7)cc65)CC4)cc3)CC2)CN1 [Example 97]
A. 10 to 51.3 µM

Q. Given the compound C[C@@H]1CN(CC(=O)N2CC(C)(C)c3[nH]c(=O)c(Cc4ccc(F)cc4)cc32)[C@@H](CN2CCC(CNC(=O)Cc3ccc(CC(=O)NCC4CCN(C[C@H]5CN[C@H](C)CN5CC(=O)N5CC(C)(C)c6[nH]c(=O)c(Cc7ccc(F)cc7)cc65)CC4)cc3)CC2)CN1 [Example 102] , write its reported IC50.
A. 10 to 51.3 µM

Q. Provide IC50 value for the following compound: C[C@@H]1CN(CC(=O)N2CC(C)(C)c3[nH]c(=O)c(Cc4ccc(F)cc4)cc32)[C@@H](CN2CCO[C@@H](COc3cccc(OC[C@H]4CN(C[C@H]5CN[C@H](C)CN5CC(=O)N5CC(C)(C)c6[nH]c(=O)c(Cc7ccc(F)cc7)cc65)CCO4)c3)C2)CN1 [Example 112]
A. 10 to 51.3 µM
